- System: Streptococcus pneumoniae
- EXPERIMENT SUMMARY: Antibacterial activity against Streptococcus pneumoniae ATCC 49619 after 24 hrs by twofold serial dilution method
- Format: functional
- TEST PARAMETERS: ATCC 49619, 24 h
VALUE KIND: log10(MIC) (log10 of the value in µg/mL)
Log10 applied to MIC; unit prior to transform: µg/mL.

Study these solved cases before continuing.
>>> reported_measurement("Cc1cc2occ(/C=C(/c3ccc([N+](=O)[O-])cc3)c3nnn[nH]3)c(=O)c2cc1Cl")
1.20
>>> reported_measurement("CC1(C)S[C@@H]2[C@H](NC(=O)[C@H](N)c3ccccc3)C(=O)N2[C@H]1C(=O)O")
-1.22
>>> reported_measurement("O=c1c(/C=C(/c2ccc([N+](=O)[O-])cc2)c2nnn[nH]2)coc2c(Cl)cc(Cl)cc12")
0.00
>>> reported_measurement("Cc1cc(C)c2occ(/C=C(/c3ccc([N+](=O)[O-])cc3)c3nnn[nH]3)c(=O)c2c1")
1.20
>>> reported_measurement("O=C(O)c1cn(C2CC2)c2cc(N3CCNCC3)c(F)cc2c1=O")
0.30
>>> reported_measurement("CC[C@H]1OC(=O)[C@H](C)[C@@H](O[C@H]2C[C@@](C)(OC)[C@@H](O)[C@H](C)O2)[C@H](C)[C@@H](O[C@@H]2O[C@H](C)C[C@H](N(C)C)[C@H]2O)[C@](C)(O)C[C@@H](C)C(=O)[C@H](C)[C@@H](O)[C@]1(C)O")
-0.92

// below: log10(MIC) requested for another compound
What is its log10(MIC) for Streptococcus pneumoniae? Entry: O=c1c(/C=C(/c2ccc([N+](=O)[O-])cc2)c2nnn[nH]2)coc2ccc(F)cc12 -0.30

---

- System: Staphylococcus aureus
- EXPERIMENT SUMMARY: Antibacterial activity against methicillin-resistant Staphylococcus aureus 032 after 24 hrs by twofold serial dilution method
- Type: functional
Kindly state MIC for each of the entries shown.

Study these solved cases before continuing.
>>> reported_measurement("O=C(O)c1cn(C2CC2)c2cc(N3CCNCC3)c(F)cc2c1=O [CIPROFLOXACIN]")
"> 32 µg/mL"
>>> reported_measurement("O=c1c(/C=C(/c2ccc([N+](=O)[O-])cc2)c2nnn[nH]2)coc2c(Cl)cc(Cl)cc12")
"2 µg/mL"
>>> reported_measurement("O=c1c(/C=C(/c2ccc([N+](=O)[O-])cc2)c2nnn[nH]2)coc2ccc(Br)cc12")
"> 32 µg/mL"
>>> reported_measurement("CC[C@H]1OC(=O)[C@H](C)[C@@H](O[C@H]2C[C@@](C)(OC)[C@@H](O)[C@H](C)O2)[C@H](C)[C@@H](O[C@@H]2O[C@H](C)C[C@H](N(C)C)[C@H]2O)[C@](C)(O)C[C@@H](C)C(=O)[C@H](C)[C@@H](O)[C@]1(C)O [ERYTHROMYCIN]")
"> 32 µg/mL"
>>> reported_measurement("O=c1c(/C=C(/c2ccc([N+](=O)[O-])cc2)c2nnn[nH]2)coc2ccc(Cl)cc12")
"> 32 µg/mL"
>>> reported_measurement("Cc1cc2occ(/C=C(/c3ccc([N+](=O)[O-])cc3)c3nnn[nH]3)c(=O)c2cc1Cl")
"4 µg/mL"
>>> reported_measurement("CC1(C)S[C@@H]2[C@H](NC(=O)[C@H](N)c3ccccc3)C(=O)N2[C@H]1C(=O)O [AMPICILLIN]")
"> 32 µg/mL"
>>> reported_measurement("O=c1c(/C=C(/c2ccc([N+](=O)[O-])cc2)c2nnn[nH]2)coc2ccc(F)cc12")
"0.5 µg/mL"

Give one value of MIC per listed compound.
1. Cc1cc(C)c2occ(/C=C(/c3ccc([N+](=O)[O-])cc3)c3nnn[nH]3)c(=O)c2c1
2. Cc1ccc2occ(/C=C(/c3ccc([N+](=O)[O-])cc3)c3nnn[nH]3)c(=O)c2c1

2 µg/mL
> 32 µg/mL
